The values you see were collected from patent US10449182B2.

Tested System: Raf-1 (Homo sapiens, UniProt P04049)
Construct: Full length recombinant Raf-I and b-Raf (V600E) kinases
Measurement Notes: Recombinant Raf kinase inhibition (ADP-Glo Kinase Assay), Raf-1
Cond: 10 nM Raf kinase, 1 μM MEK-1, 10 μM ATP, 22° C., 1 hour
Property Label: IC50 (nM)

Compound: O=C(Nc1ccc(Cl)c(C(F)(F)F)c1)N[C@H]1CC[C@H](Oc2ccc(C(=O)O)cc2)CC1
Property Label: IC50
Unit Spec: nM
Measured Value: 4300

1 = CNC(=O)c1cc(Oc2ccc(NC(=O)Nc3ccc(OC(F)(F)F)cc3)cc2)ccn1
2 = CNC(=O)c1ccc(O[C@H]2CC[C@H](NC(=O)Nc3ccc(Cl)c(C(F)(F)F)c3)CC2)cc1
3 = CNC(=O)c1ccc(OC2CCC(NC(=O)Nc3ccc(Cl)c(C(F)(F)F)c3)CC2)cn1 (stereo not shown)
Order the records, beginning with the lowest IC50 and ending with the highest. Hello, could you send the labels back in the order asked? Thank you.
1, 3, 2
(1: 30 nM, 3: 175 nM, 2: 340 nM)

====

Tested System: b-Raf (V600E) (Homo sapiens, UniProt P15056, V600E)
Construct: Full length recombinant Raf-I and b-Raf (V600E) kinases
Sequence (P15056 whole entry V600E): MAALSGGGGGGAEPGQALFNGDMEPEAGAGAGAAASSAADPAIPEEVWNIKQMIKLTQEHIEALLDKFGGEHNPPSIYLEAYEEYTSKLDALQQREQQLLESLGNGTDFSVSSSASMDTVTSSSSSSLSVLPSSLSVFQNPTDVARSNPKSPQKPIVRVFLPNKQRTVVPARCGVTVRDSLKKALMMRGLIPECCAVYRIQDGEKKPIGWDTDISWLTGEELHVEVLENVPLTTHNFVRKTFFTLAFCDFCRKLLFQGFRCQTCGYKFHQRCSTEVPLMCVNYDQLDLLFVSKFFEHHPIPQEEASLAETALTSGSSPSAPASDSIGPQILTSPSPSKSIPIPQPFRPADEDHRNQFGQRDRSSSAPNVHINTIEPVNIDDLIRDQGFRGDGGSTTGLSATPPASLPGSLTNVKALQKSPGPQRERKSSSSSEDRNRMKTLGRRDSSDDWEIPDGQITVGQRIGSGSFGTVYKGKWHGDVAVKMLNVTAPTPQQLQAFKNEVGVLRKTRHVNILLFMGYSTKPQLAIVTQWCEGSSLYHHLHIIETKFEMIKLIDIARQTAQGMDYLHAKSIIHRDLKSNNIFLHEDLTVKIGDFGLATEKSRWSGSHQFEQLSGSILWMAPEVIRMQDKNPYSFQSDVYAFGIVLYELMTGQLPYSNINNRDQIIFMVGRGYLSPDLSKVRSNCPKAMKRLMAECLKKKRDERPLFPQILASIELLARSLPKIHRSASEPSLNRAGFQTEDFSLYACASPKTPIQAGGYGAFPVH
Measurement Notes: Recombinant Raf kinase inhibition (ADP-Glo Kinase Assay), b-Raf (V600E)
Cond: 10 nM Raf kinase, 1 μM MEK-1, 10 μM ATP, 22° C., 1 hour
Property Label: IC50 (nM)
Give the number; nM is assumed, so skip it.

Fill in reported IC50 for this entry: CNC(=O)c1ccc(OC2CCC(NC(=O)Nc3ccc(Cl)c(C(F)(F)F)c3)CC2)cn1 (centres unmarked)
200
